Reported Inhibition percent values for a set of compounds
Target: MeCP2-TBL1 interaction (MeCP2-SmBiT / TBL1-LgBiT) (Mus musculus, UniProt Q9QXE7)
Construct: expressed in transfected cells; crude lysate used as a cell-free assay
Sequence (Q9QXE7 166-527): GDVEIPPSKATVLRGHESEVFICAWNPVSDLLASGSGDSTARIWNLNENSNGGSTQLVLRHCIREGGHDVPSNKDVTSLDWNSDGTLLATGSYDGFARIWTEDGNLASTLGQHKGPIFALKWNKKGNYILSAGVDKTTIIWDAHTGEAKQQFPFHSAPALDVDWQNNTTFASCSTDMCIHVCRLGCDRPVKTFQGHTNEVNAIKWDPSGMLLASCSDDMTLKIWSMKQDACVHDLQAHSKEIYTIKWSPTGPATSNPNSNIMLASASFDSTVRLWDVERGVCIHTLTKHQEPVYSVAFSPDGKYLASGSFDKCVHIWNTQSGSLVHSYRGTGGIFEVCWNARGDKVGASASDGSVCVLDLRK
Assay: MeCP2-TBL1 NanoLuc luciferase complementation assay (cell-free, extracts of transfected HEK293 cells);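 note: each compound tested at 20 µM final concentration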
Format: binding, human
Details: primary screen of the Asinex library, sheet "Sargen output Asinex library", one well per compound
# number only, unit % dropped from output

Previously resolved entries follow.
Compound	Inhibition percent [%]
COc1ccc(C2(C(=O)N3CCCC(Cc4cccc5ccncc45)CC3)CCOCC2)cc1 (stereo not shown)	2.06
NC(=O)C1CN(Cc2ccccc2)CCN1CC(=O)Nc1ccccc1C(F)(F)F (stereo not shown)	-2.26
COc1ccc(C(=O)N2CCCC(Cc3ccc4ncccc4c3)C2)cc1NCc1ccncc1 (stereo not shown)	-4.50
CC(=O)N(C)Cc1cc(N(C)C)nc(C2CCCN2C(=O)Cc2ccc3c(c2)CCCC3)n1 (stereo not shown)	-14.24
O=C(c1cccc(-n2cnnc2)c1)N1CCOCC(Cc2cccc3occc23)C1 (stereo not shown)	-8.70
O=C(Cc1c[nH]c2ccccc12)N1CCC2(CC=CCN(Cc3ccc(F)cc3)C2=O)CC1	-0.14
CC1CCN(C(=O)CN2CCC(C3CCCCN(CCc4ccccc4)C3=O)CC2)CC1 (stereo not shown)	-2.53
Cc1cc(Oc2ccccc2)nc(C2CCN(C(=O)C3(C)CCN(c4ncccn4)CC3)CC2)n1	3.25

Returns the measured Inhibition percent for the input compound. Input: O=C1CCCN1CCOc1cccc(C(=O)N2CCCC(Cc3cccc4cnccc34)CC2)c1 (stereo not shown)
1.74

Item COc1cccc([C@@H]2C[C@]3(C)NC(=O)CCCC[C@@H]3N2CC(=O)Nc2ccc3[nH]c(=O)[nH]c3c2)c1 has what recorded Inhibition percent?
-1.75

What does the record list as Inhibition percent for C[C@@H]1CC[C@@H]2[C@@H](C1)c1c(ccc(C(=O)O)c1O)OC2(C)C ?
2.57

# lookup: Inhibition percent of NC(=O)c1cccc(-c2nccnc2C2CCCN(CCCc3ccccc3)C2)c1 (stereo not shown)
-1.40

* * *

Tested on: PRKACA-PRKAR2A interaction (SmBiT-PRKACA / LgBiT-PRKAR2A), protein kinase A
Parameters: NanoLuc complementation counter-screen in cell extract, PRKACA with PRKAR2A, loss of luminescence, detects NanoLuc interference
Conditions: counter-screen for NanoLuc interference; 0.5 h, 20 µM; inhibitor
Structures can show the parent of a compound that is named as a salt.
Quick reference: Inh (PKA) of the listed items.
Express your answer in %, writing the number without its unit.

Worked cases, answers included:
Compound	Meas Value
NC1(c2ccc(-c3nc4ccn5c(=O)[nH]nc5c4cc3-c3ccccc3)cc2)CCC1 [UM0130983:02, MK-2206 dihydrochloride]	6.14
O=C(O)C(Cc1c[nH]c2ccccc12)N1C(=O)c2ccccc2C1=O (centres unmarked) [UM0141426:01, RG 108]	1.344
CC(C)NC(=O)COc1cccc(-c2nc(Nc3ccc4[nH]ncc4c3)c3ccccc3n2)c1 [UM0141632:01, SLx-2119]	49.23

Let's switch to this compound now.
Item O=P(O)(O)C(O)(Cc1cccnc1)P(=O)(O)O [UM0141876:01, Risedronate Sodium] has what recorded Inh (PKA)?
-0.1627
